- assay_name: Metabolic stability in human hepatic microsome
- Format: in vitro ADME
- run_parameters: microsomes, pH 7.4; human hepatic microsome, NADPH(+); read-out: CL NADPH(+)
Starred links: 1 amine or outer side, 2 acyl side, 3 side chain; linkers in the order of their positions; H or OH if unused. Positions of bridges follow the written chain, without caps; N, C: chain ends. Non-standard residues stand in square brackets, D forms with d. Residues, ends and D or L forms follow the SMILES beside them. *: point of attachment. Phe(4-(CH2)5CO) = O=C([C@H](Cc1ccc(CCCCCC(=O)[*:3])cc1)N[*:1])[*:2]; NMePhe(3-Cl) = CN[C@@H](Cc1cccc(Cl)c1)C(=O)O; NMeF = CN[C@@H](Cc1ccccc1)C(=O)O; NMeGABA = CN(CCCC(=O)[*:2])[*:1]; NMeL = CN[C@@H](CC(C)C)C(=O)O; NMeV = CN[C@H](C(=O)O)C(C)C; NMeA = CN[C@@H](C)C(=O)O; Piperidide = C1CCN(*)CC1; dNMeA = CN[C@H](C)C(=O)O; β3hA = C[C@H](N)CC(=O)O; Sar = CNCC(=O)O; tBu = CC(C)(C)*
measured_endpoint: microsomal CLint at 1 uM (µL/min/mg)

1. CC(C)C[C@H]1C(=O)N(C)[C@@H](C)C(=O)N[C@H](C(=O)N(C)[C@@H](Cc2ccccc2)C(=O)N(C)[C@@H](Cc2ccccc2)C(=O)N[C@@H](C)C(=O)N2CCCCC2)CC(=O)N(C)[C@H](C)C(=O)N(C)[C@@H](Cc2ccccc2)C(=O)N(C)CC(=O)N[C@@H]([C@@H](C)O)C(=O)N[C@@H](C)C(=O)N(C)[C@@H](C)C(=O)N1C [DP-463] ([dNMeA][NMeF][Sar]TA[NMeA][NMeL][NMeA]D[NMeF][NMeF]A-Piperidide; lactam N-9) :: 10
2. CC[C@H](C)[C@@H]1NC(=O)[C@H](C)N(C)C(=O)[C@H](CC(C)C)N(C)C(=O)CN(C)C(=O)[C@H]([C@@H](C)O)NC(=O)[C@H](C(C)C)N(C)C(=O)[C@H](C)N(C)C(=O)[C@H](Cc2ccccc2)NC(=O)[C@@H](C)NC(=O)C[C@@H](C(=O)N(C)[C@@H](Cc2ccccc2)C(=O)N(C)[C@@H](Cc2ccccc2)C(=O)N[C@@H](C)C(=O)N2CCCCC2)NC1=O [DP-502] ([dA]F[NMeA][NMeV]T[Sar][NMeL][NMeA]ID[NMeF][NMeF]A-Piperidide; lactam N-10) :: 19
3. CC(C)C[C@H]1C(=O)N[C@H](C(=O)N2CCCCC2)CC(=O)N[C@H](C)C(=O)N(C)[C@@H](Cc2ccccc2)C(=O)N(C)[C@@H](CC(C)C)C(=O)N[C@@H]([C@@H](C)O)C(=O)N(C)[C@@H](C)C(=O)N[C@@H](COC(C)(C)C)C(=O)N1C [DP-708] ([dA][NMeF][NMeL]T[NMeA]S(tBu)[NMeL]D-Piperidide; lactam N-8) :: 35
4. CC[C@H](C)[C@@H]1NC(=O)[C@H](C)N(C)C(=O)CCCN(C)C(=O)C[C@@H](C(=O)N2CCCCC2)NC(=O)[C@H](CC(C)C)N(C)C(=O)[C@H](C)N(C)C(=O)[C@H]([C@@H](C)O)NC(=O)[C@H](Cc2ccccc2)N(C)C(=O)[C@H](Cc2ccccc2)N(C)C(=O)[C@H](CC(C)C)N(C)C1=O [DP-261] ([NMeGABA][NMeA]I[NMeL][NMeF][NMeF]T[NMeA][NMeL]D-Piperidide; lactam N-10) :: 84
5. CC[C@H](C)[C@H](NC(=O)CN(C)C(=O)[C@H](Cc1ccccc1)N(C)C(=O)[C@H](CC(C)C)N(C)C(=O)[C@@H](NC(=O)[C@@H]1CC(=O)N(C)[C@@H](C)C(=O)N[C@@H](CC(C)C)C(=O)N(C)[C@@H](CC(C)C)C(=O)N(C)[C@@H](C)C(=O)N(C)[C@@H](Cc2cccc(Cl)c2)C(=O)N[C@@H]([C@@H](C)O)C(=O)N1)C(C)C)C(=O)N1CCCCC1 [DP-912] ([NMeA]L[NMeL][NMeA][NMePhe(3-Cl)]TDV[NMeL][NMeF][Sar]I-Piperidide; lactam N-7) :: 8
6. CC(C)C[C@H]1C(=O)N[C@@H](C(C)C)C(=O)N(C)[C@@H](Cc2ccccc2)C(=O)NCC(=O)N[C@H](C(=O)N(C)[C@@H](Cc2ccccc2)C(=O)N(C)[C@@H](Cc2ccccc2)C(=O)N[C@@H](C)C(=O)N2CCCCC2)CC(=O)N[C@H](C)C(=O)N[C@@H]([C@@H](C)O)C(=O)N(C)[C@@H](C)C(=O)N(C)[C@@H](Cc2ccccc2)C(=O)N1C [DP-209] ([dA]T[NMeA][NMeF][NMeL]V[NMeF]GD[NMeF][NMeF]A-Piperidide; lactam N-9) :: 98
7. CC[C@H](C)[C@@H]1NC(=O)[C@H](CC(C)C)N(C)C(=O)[C@H](Cc2ccccc2)N(C)C(=O)[C@@H](C(C)C)NC(=O)C[C@@H](C(=O)N2CCCCC2)NC(=O)[C@H](CC(C)C)N(C)C(=O)[C@H](C)N(C)C(=O)[C@H]([C@@H](C)O)NC(=O)[C@H](Cc2ccccc2)N(C)C(=O)[C@H](C)N(C)C1=O [DP-255] ([dV][NMeF][NMeL]I[NMeA][NMeF]T[NMeA][NMeL]D-Piperidide; lactam N-10) :: 79
8. CC(C)C[C@H]1C(=O)N(C)[C@@H](C)C(=O)N[C@@H]([C@@H](C)O)C(=O)N(C)[C@@H](C)C(=O)N[C@H](C(=O)N(C)[C@@H](Cc2ccccc2)C(=O)N[C@@H](C)C(=O)N2CCCCC2)CC(=O)N(C)[C@H](C)C(=O)N(C)[C@@H](Cc2ccccc2)C(=O)N(C)[C@@H](C)C(=O)N[C@@H](C(C)C)C(=O)N1C [DP-462] ([dNMeA][NMeF][NMeA]V[NMeL][NMeA]T[NMeA]D[NMeF]A-Piperidide; lactam N-9) :: 17
9. CC[C@H](C)[C@@H]1NC(=O)[C@H](CC(C)C)N(C)C(=O)[C@H](Cc2cccc(Cl)c2)N(C)C(=O)[C@@H](C(C)C)NC(=O)C[C@H](C)NC(=O)[C@H](CC(C)C)N(C)C(=O)[C@H](C)N(C)C(=O)[C@H]([C@@H](C)O)NC(=O)[C@H](Cc2cccc(Cl)c2)N(C)C(=O)[C@H](C)N(C)C1=O [DP-812] (cyclo(I[NMeA][NMePhe(3-Cl)]T[NMeA][NMeL][β3hA][dV][NMePhe(3-Cl)][NMeL])) :: 222
10. CC(C)C[C@H]1C(=O)N[C@@H](COC(C)(C)C)C(=O)N(C)[C@@H](CC(C)C)C(=O)N[C@H](C(=O)N2CCCCC2)Cc2ccc(cc2)CCCCCC(=O)N(C)[C@@H](C)C(=O)N(C)[C@@H](Cc2ccccc2)C(=O)N(C)[C@@H](CC(C)C)C(=O)N[C@@H]([C@@H](C)O)C(=O)N(C)CC(=O)N1C [DP-837] ([NMeA][NMeF][NMeL]T[Sar][NMeL]S(tBu)[NMeL][Phe(4-(CH2)5CO)]-Piperidide; lactam N-9) :: 284
